Numbers sourced from patent US11092608B2.

Molecular target: interaction of GATOR2 with CASTOR1 homodimer (Homo sapiens, UniProt Q8WTX7)
Construct: GATOR2 is the cells' endogenous complex, co-immunoprecipitated on anti-HA beads
Sequence (Q8WTX7 whole entry): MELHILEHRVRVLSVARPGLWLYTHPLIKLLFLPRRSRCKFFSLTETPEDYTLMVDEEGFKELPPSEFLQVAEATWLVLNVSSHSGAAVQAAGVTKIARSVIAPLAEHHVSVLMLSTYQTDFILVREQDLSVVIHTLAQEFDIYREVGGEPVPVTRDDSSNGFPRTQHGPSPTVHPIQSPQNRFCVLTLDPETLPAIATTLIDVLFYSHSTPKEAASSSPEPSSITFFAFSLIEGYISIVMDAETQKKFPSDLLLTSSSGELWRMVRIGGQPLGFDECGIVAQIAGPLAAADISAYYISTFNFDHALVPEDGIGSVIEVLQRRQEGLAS
Sequence (Q8WTX7 whole entry): as above
Assay: In vitro CASTOR-GATOR2 dissociation assay
Conditions: purified complexes from amino acid starved HEK-293T cells; CASTOR1 homodimer; read-out: arginine concentration for half-maximal disruption of GATOR2 interaction
Description: HEK-293T cells co-transfected with 40 ng CASTOR1-HA and either 80 ng CASTOR1-FLAG (CASTOR1 homodimer) or 80 ng CASTOR2-FLAG (CASTOR1-CASTOR2 heterodimer) were starved for all amino acids for 50 minutes, lysed and subjected to anti-HA immunoprecipitation as described previously. […]
quantityName: EC50

Ask: I would be grateful if you could share the reported EC50 for `N=C(N)NCCC[C@H](N)C(=O)O` .
Reply: 20 to 40 µM
